Test: Apparent oral clearance in healthy human at 87.5 mg, po administered as single dose coadministered with 100 mg of ritonavir
Assay type: ADME, organism-based
Conditions: in vivo
Measurement Label: CL/F

Compound | Reading
CCN1c2ncc(CCOc3cc[n+]([O-])c4ccccc34)cc2C(=O)N(C)c2cccnc21 [BILR 355] | 138 mL/min
